- Test system: B16F10 mouse melanoma cell line
- assay protocol: Growth inhibition test (MTT) for cytotoxic properties on tumour cell lines
- Assay type: cell-based
- assay setup: B16F10 cells, growth checked after day 6, read-out: IC50 of the cytotoxic action on tumour cell lines, B16F10
Where a SMILES comes first, the peptide text is derived from it. [ ]: non-standard residue; d: D form. The star is where a group is joined. X1 = CO[C@H]1[C@@H](O)[C@@H](C)OC(Oc2ccc(NC(=S)*)cc2)[C@H]1O; X2 = CC[C@@]1(O*)C(=O)OCc2c1cc1n(c2=O)Cc2cc3ccccc3nc2-1
observed property: IC50 (µM)
Answers are plain numbers, in µM.

Query: GET /values?readout=IC50&system=B16F10 mouse melanoma cell line&item= CC[C@@]1(OC(=O)[C@H](NC(=O)[C@@H](Cc2c[nH]cn2)NC(=O)[C@@H](CC(C)C)NC(=O)CNC(=O)[C@H](CC(C)C)NC(=O)[C@H]2CCCN2C(=S)Nc2ccc(OC3O[C@H](C)[C@H](O)[C@H](OC)[C@@H]3O)cc2)C(C)C)C(=O)OCc2c1cc1n(c2=O)Cc2cc3ccccc3nc2-1.Cl (stereo partly drawn) [Example 3] (X1-[dP]LG[dL][dH][dV]-X2)
Result: 0.15

###

- System: SW 480 human large intestine cell line
- assay protocol: Growth inhibition test (MTT) for cytotoxic properties on tumour cell lines
- Format: cell-based
- assay setup: SW480 cells, growth checked after day 6, read-out: IC50 of the cytotoxic action on tumour cell lines, SW480
pIC50: −log10 of the molar value. *1 amine or outer side, *2 acyl side, *3 side chain or, on linkers, in order; H or OH if unused. Where a SMILES comes first, the peptide text is derived from it. [ ]: non-standard residue; d: D form. The star is where a group is joined. Camptothecin(20R,20-O) = CC[C@]1(O*)C(=O)OCc2c1cc1n(c2=O)Cc2cc3ccccc3nc2-1; X9 = C[C@H]1O[C@@H](Oc2ccc(NC(=S)*)cc2)[C@@H](O)[C@@H](OCCO)[C@H]1O; X1 = CO[C@H]1[C@@H](O)[C@@H](C)OC(Oc2ccc(NC(=S)*)cc2)[C@H]1O; X2 = CC[C@@]1(O*)C(=O)OCc2c1cc1n(c2=O)Cc2cc3ccccc3nc2-1; X3 = CO[C@H]1[C@@H](O)[C@@H](C)OC(Oc2ccc(N*)cc2)[C@H]1O; CO = O=C([*:1])[*:2]
Label YES when pIC50 >= 7; otherwise NO.

Check out these entries, answers already filled in.
Query: Answer whether pIC50 of CC[C@]1(OC(=O)[C@H](NC(=O)[C@@H](CC(N)=O)NC(=O)[C@@H](CC(C)C)NC(=O)CNC(=O)[C@H](CC(C)C)NC(=O)[C@H]2CCCN2C(=S)Nc2ccc(O[C@@H]3O[C@H](C)[C@H](O)[C@H](OCCO)[C@@H]3O)cc2)C(C)C)C(=O)OCc2c1cc1n(c2=O)Cc2cc3ccccc3nc2-1 [Example 25] (X9-[dP]LG[dL][dN][dV]-{Camptothecin(20R,20-O)}) is greater than or equal to 7.
Result: NO

Query: Answer whether pIC50 of CC[C@@]1(OC(=O)[C@H](NC(=O)[C@@H](Cc2c[nH]c3ccccc23)NC(=O)[C@@H](CC(C)C)NC(=O)CNC(=O)[C@H](CC(C)C)NC(=O)[C@H]2CCCN2C(=S)Nc2ccc(OC3O[C@H](C)[C@H](O)[C@H](OC)[C@@H]3O)cc2)C(C)C)C(=O)OCc2c1cc1n(c2=O)Cc2cc3ccccc3nc2-1 (stereo partly drawn) [Example 9] (X1-[dP]LG[dL][dW][dV]-X2) is greater than or equal to 7.
Result: NO

***
Query: Answer whether pIC50 of CC[C@@]1(OC(=O)[C@H](NC(=O)[C@@H](CC(=O)O)NC(=O)[C@@H](CC(C)C)NC(=O)CNC(=O)[C@H](CC(C)C)NC(=O)[C@H]2CCCN2C(=S)Nc2ccc(OC3O[C@H](C)[C@H](O)[C@H](OC)[C@@H]3O)cc2)C(C)C)C(=O)OCc2c1cc1n(c2=O)Cc2cc3ccccc3nc2-1 (stereo partly drawn) [Example 7] (X1-[dP]LG[dL][dD][dV]-X2) is greater than or equal to 7.
Result: NO

Query: Answer whether pIC50 of CC[C@@]1(OC(=O)[C@H](NC(=O)[C@@H](CC(N)=O)NC(=O)[C@@H](CC(C)C)NC(=O)CNC(=O)[C@H](CC(C)C)NC(=O)[C@H]2CCCN2C(=O)Nc2ccc(OC3O[C@H](C)[C@H](O)[C@H](OC)[C@@H]3O)cc2)C(C)C)C(=O)OCc2c1cc1n(c2=O)Cc2cc3ccccc3nc2-1 (stereo partly drawn) [Example 6] ({X3-CO}-[dP]LG[dL][dN][dV]-X2) is greater than or equal to 7.
Result: YES

###

- System: HT29 human large intestine cell line
- assay protocol: Growth inhibition test (MTT) for cytotoxic properties on tumour cell lines
- Type: cell-based
- assay setup: HT29 cells, growth checked after day 6, read-out: IC50 of the cytotoxic action on tumour cell lines, HT29
Where a SMILES comes first, the peptide text is derived from it. [ ]: non-standard residue; d: D form. The star is where a group is joined. Camptothecin(20R,20-O) = CC[C@]1(O*)C(=O)OCc2c1cc1n(c2=O)Cc2cc3ccccc3nc2-1; X9 = C[C@H]1O[C@@H](Oc2ccc(NC(=S)*)cc2)[C@@H](O)[C@@H](OCCO)[C@H]1O; X4 = CO[C@H]1[C@H](O)[C@@H](Oc2ccc(NC(=S)*)cc2)O[C@@H](C)[C@H]1O; X2 = CC[C@@]1(O*)C(=O)OCc2c1cc1n(c2=O)Cc2cc3ccccc3nc2-1
observed property: IC50 (nM)
Give bare numbers, in nM.

// solved cases for IC50 follow
Query: GET /values?readout=IC50&system=HT29 human large intestine cell line&item= CC[C@@]1(OC(=O)[C@@H](NC(=O)CNC(=O)[C@H](CC(C)C)NC(=O)CNC(=O)[C@H](CC(C)C)NC(=O)[C@@H]2CCCN2C(=S)Nc2ccc(O[C@H]3O[C@@H](C)[C@@H](O)[C@@H](OC)[C@@H]3O)cc2)C(C)C)C(=O)OCc2c1cc1n(c2=O)Cc2cc3ccccc3nc2-1 [Example 20] (X4-PLGLGV-X2)
Result: 250

Query: GET /values?readout=IC50&system=HT29 human large intestine cell line&item= CC[C@]1(OC(=O)[C@H](NC(=O)[C@@H](CC(N)=O)NC(=O)[C@@H](CC(C)C)NC(=O)CNC(=O)[C@H](CC(C)C)NC(=O)[C@H]2CCCN2C(=S)Nc2ccc(O[C@@H]3O[C@H](C)[C@H](O)[C@H](OCCO)[C@@H]3O)cc2)C(C)C)C(=O)OCc2c1cc1n(c2=O)Cc2cc3ccccc3nc2-1 [Example 25] (X9-[dP]LG[dL][dN][dV]-{Camptothecin(20R,20-O)})
Result: 150

Next, consider the following compound.
Query: GET /values?readout=IC50&system=HT29 human large intestine cell line&item= CC[C@@]1(OC(=O)[C@@H](NC(=O)[C@H](CCC(=O)O)NC(=O)[C@H](CC(C)C)NC(=O)CNC(=O)[C@H](CC(C)C)NC(=O)[C@@H]2CCCN2C(=S)Nc2ccc(O[C@H]3O[C@@H](C)[C@@H](O)[C@@H](OC)[C@@H]3O)cc2)C(C)C)C(=O)OCc2c1cc1n(c2=O)Cc2cc3ccccc3nc2-1 [Example 19] (X4-PLGLEV-X2)
Result: 400

###

- system name: MMP-2 (Homo sapiens, UniProt P08253)
- Construct: purchased Calbiochem
- Sequence (P08253 110-660): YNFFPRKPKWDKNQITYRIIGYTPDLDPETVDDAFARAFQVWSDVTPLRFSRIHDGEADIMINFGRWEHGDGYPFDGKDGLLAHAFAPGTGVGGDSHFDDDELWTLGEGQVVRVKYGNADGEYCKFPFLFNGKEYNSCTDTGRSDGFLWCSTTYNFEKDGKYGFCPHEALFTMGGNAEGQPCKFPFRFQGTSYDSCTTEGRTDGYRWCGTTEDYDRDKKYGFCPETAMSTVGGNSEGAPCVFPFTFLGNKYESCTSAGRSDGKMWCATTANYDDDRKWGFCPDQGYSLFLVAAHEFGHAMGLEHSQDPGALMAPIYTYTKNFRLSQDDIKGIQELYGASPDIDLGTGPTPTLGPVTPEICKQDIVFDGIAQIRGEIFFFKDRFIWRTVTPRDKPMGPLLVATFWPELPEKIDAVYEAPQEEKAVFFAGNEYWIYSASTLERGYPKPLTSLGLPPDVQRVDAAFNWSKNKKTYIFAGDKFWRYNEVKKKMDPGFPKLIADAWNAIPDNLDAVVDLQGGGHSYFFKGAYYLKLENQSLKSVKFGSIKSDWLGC
- assay protocol: Cleavage of conjugates by MMP-2 in buffer
- Format: biochemical
- assay setup: after 6 h incubation with MMP-2 in buffer pH 7.5, HPLC peak areas
*1 amine or outer side, *2 acyl side, *3 side chain or, on linkers, in order; H or OH if unused. Where a SMILES comes first, the peptide text is derived from it. [ ]: non-standard residue; d: D form. The star is where a group is joined. X1 = CO[C@H]1[C@@H](O)[C@@H](C)OC(Oc2ccc(NC(=S)*)cc2)[C@H]1O; X2 = CC[C@@]1(O*)C(=O)OCc2c1cc1n(c2=O)Cc2cc3ccccc3nc2-1; X3 = CO[C@H]1[C@@H](O)[C@@H](C)OC(Oc2ccc(N*)cc2)[C@H]1O; CO = O=C([*:1])[*:2]
observed property: MMP-2 mediated cleavage, peak area product/educt × 100
One number for each entry.

// solved cases for MMP-2 mediated cleavage, peak area product/educt × 100 follow
Query: Find the recorded MMP-2 mediated cleavage, peak area product/educt × 100 belonging to CC[C@@]1(OC(=O)[C@H](NC(=O)[C@@H](CC(=O)O)NC(=O)[C@@H](CC(C)C)NC(=O)CNC(=O)[C@H](CC(C)C)NC(=O)[C@H]2CCCN2C(=S)Nc2ccc(OC3O[C@H](C)[C@H](O)[C@H](OC)[C@@H]3O)cc2)C(C)C)C(=O)OCc2c1cc1n(c2=O)Cc2cc3ccccc3nc2-1 (stereo partly drawn) [Example 7] (X1-[dP]LG[dL][dD][dV]-X2) and report it.
Result: 9

Query: Find the recorded MMP-2 mediated cleavage, peak area product/educt × 100 belonging to CC[C@@]1(OC(=O)[C@H](NC(=O)[C@@H](Cc2c[nH]cn2)NC(=O)[C@@H](CC(C)C)NC(=O)CNC(=O)[C@H](CC(C)C)NC(=O)[C@H]2CCCN2C(=S)Nc2ccc(OC3O[C@H](C)[C@H](O)[C@H](OC)[C@@H]3O)cc2)C(C)C)C(=O)OCc2c1cc1n(c2=O)Cc2cc3ccccc3nc2-1.Cl (stereo partly drawn) [Example 3] (X1-[dP]LG[dL][dH][dV]-X2) and report it.
Result: 609

Query: Find the recorded MMP-2 mediated cleavage, peak area product/educt × 100 belonging to CC[C@@]1(OC(=O)[C@H](NC(=O)[C@@H](CC(N)=O)NC(=O)[C@@H](CC(C)C)NC(=O)CNC(=O)[C@H](CC(C)C)NC(=O)[C@H]2CCCN2C(=O)Nc2ccc(OC3O[C@H](C)[C@H](O)[C@H](OC)[C@@H]3O)cc2)C(C)C)C(=O)OCc2c1cc1n(c2=O)Cc2cc3ccccc3nc2-1 (stereo partly drawn) [Example 6] ({X3-CO}-[dP]LG[dL][dN][dV]-X2) and report it.
Result: 80

Items follow; give MMP-2 mediated cleavage, peak area product/educt × 100 for each.
1. CC[C@@]1(OC(=O)[C@H](NC(=O)[C@@H](Cc2c[nH]cn2)NC(=O)[C@@H](CC(C)C)NC(=O)CNC(=O)[C@H](CC(C)C)NC(=O)[C@H]2CCCN2C(=O)Nc2ccc(OC3O[C@H](C)[C@H](O)[C@H](OC)[C@@H]3O)cc2)C(C)C)C(=O)OCc2c1cc1n(c2=O)Cc2cc3ccccc3nc2-1.Cl (stereo partly drawn) [Example 4] ({X3-CO}-[dP]LG[dL][dH][dV]-X2)
2. CC[C@@]1(OC(=O)[C@H](NC(=O)[C@@H](CC(N)=O)NC(=O)[C@@H](CC(C)C)NC(=O)CNC(=O)[C@H](CC(C)C)NC(=O)[C@H]2CCCN2C(=S)Nc2ccc(OC3O[C@H](C)[C@H](O)[C@H](OC)[C@@H]3O)cc2)C(C)C)C(=O)OCc2c1cc1n(c2=O)Cc2cc3ccccc3nc2-1 (stereo partly drawn) [Example 5] (X1-[dP]LG[dL][dN][dV]-X2)
3. CC[C@@]1(OC(=O)[C@H](NC(=O)[C@@H](Cc2c[nH]c3ccccc23)NC(=O)[C@@H](CC(C)C)NC(=O)CNC(=O)[C@H](CC(C)C)NC(=O)[C@H]2CCCN2C(=S)Nc2ccc(OC3O[C@H](C)[C@H](O)[C@H](OC)[C@@H]3O)cc2)C(C)C)C(=O)OCc2c1cc1n(c2=O)Cc2cc3ccccc3nc2-1 (stereo partly drawn) [Example 9] (X1-[dP]LG[dL][dW][dV]-X2)

Result:
1. 700
2. 166
3. 64
